Assay: Protein binding in rat plasma at 1 uM incubated for 6 hrs by dialysis based LC-MS/MS analysis
Type: ADME, cell-free
Conditions: read-out: PPB (converted)
Value type: fraction unbound at 6 h, 1 µM
Lab note: jot down the number only; don't add units.

| Input smiles | fraction unbound at 6 h, 1 µM |
| --- | --- |
| C[C@@H]1COCCN1c1nc(-c2cccc3[nH]ccc23)nc2c1CN(C(=O)c1cccc(S(C)(=O)=O)c1)C2(C)C | 0.039 |

Now for another entry.
// lookup fraction unbound at 6 h, 1 µM for C[C@@H]1COCCN1c1nc(-c2cccc3[nH]ccc23)nc2c1CN(C(=O)c1ccc3c(c1)OCO3)C2(C)C
0.001

====

Test: AUC(0 to infinity) in Sprague-Dawley rat at 1 mg/kg, iv and measured upto 24 hrs by LC-MS analysis
Type: ADME, organism-based
Set-up: time < 24 hrs, dose 1 mg/kg, route iv
Conditions: in vivo
// NB: equality with 1000 ng·h/mL counts as not met; only AUC(0-inf) strictly below is met

Observe how each entry below is paired with its result.
| Input smiles | Group |
| --- | --- |
| C[C@@H]1COCCN1c1nc(-c2cccc3[nH]ccc23)nc2c1CN(C(=O)c1cccc(S(C)(=O)=O)c1)C2(C)C | not met |
| COc1cccc(C(=O)N2Cc3c(N4CCOC[C@H]4C)nc(-c4cccc5[nH]ccc45)nc3C2(C)C)c1 | met |

Dear colleague, could you confirm whether AUC(0-inf) of C[C@@H]1COCCN1c1nc(-c2cccc3[nH]ccc23)nc2c1CN(C(=O)c1ccc(S(C)(=O)=O)cc1)C2(C)C falls below 1000 ng·h/mL? Thanks.
met

Dear colleague, could you confirm whether AUC(0-inf) of COc1ccc(C(=O)N2Cc3c(N4CCOC[C@H]4C)nc(-c4cccc5[nH]ccc45)nc3C2(C)C)cc1 falls below 1000 ng·h/mL? Thanks.
not met

Dear colleague, could you confirm whether AUC(0-inf) of C[C@@H]1COCCN1c1nc(-c2cccc3[nH]ccc23)nc2c1CN(C(=O)c1ccc3c(c1)OCO3)C2(C)C falls below 1000 ng·h/mL? Thanks.
not met

====

Experiment: in vitro
Conditions: rat, liver microsomes
Please use 1 whenever half-life at 1 h, 1 µM is not below 40 min, and 0 whenever it is.

| Input smiles | Group |
| --- | --- |
| CC(C)C(=O)N1CCc2c(N3CCOC[C@H]3C)nc(-c3cccc4[nH]ccc34)nc2C1(C)C | 0 |

Confirm if half-life at 1 h, 1 µM reported for the compound C[C@@H]1COCCN1c1nc(-c2cccc3[nH]ccc23)nc2c1CCN(C(=O)c1cccc(F)c1)C2(C)C is 40 min or above.
0

Confirm if half-life at 1 h, 1 µM reported for the compound CCC(=O)N1CCc2c(N3CCOC[C@H]3C)nc(-c3cccc4[nH]ccc34)nc2C1(C)C is 40 min or above.
0

Confirm if half-life at 1 h, 1 µM reported for the compound CC(=O)c1cccc(C(=O)N2Cc3c(N4CCOC[C@H]4C)nc(-c4cccc5[nH]ccc45)nc3C2(C)C)c1 is 40 min or above.
0

Confirm if half-life at 1 h, 1 µM reported for the compound CC(=O)c1ccc(C(=O)N2Cc3c(N4CCOC[C@H]4C)nc(-c4cccc5[nH]ccc45)nc3C2(C)C)cc1 is 40 min or above.
1

Confirm if half-life at 1 h, 1 µM reported for the compound C[C@@H]1COCCN1c1nc(-c2cccc3[nH]ccc23)nc2c1CN(C(=O)c1cccc(S(C)(=O)=O)c1)C2(C)C is 40 min or above.
0

Confirm if half-life at 1 h, 1 µM reported for the compound C[C@@H]1COCCN1c1nc(-c2cccc3[nH]ccc23)nc2c1CN(C(=O)c1ccc(S(C)(=O)=O)cc1)C2(C)C is 40 min or above.
1
